targetOrTestSystem: T1, Boc-Glu(OBzl)-Ala-Arg-MCA
T1 chain: EAR
propertyMeasured: Km

Illustrative cases are given below, each with its answer.
Medaka EP-1 serine protease domain (wild-type) (protein) VVGGVNAEKGAWPWMVSLHWRGRHGCGASLIGRDWLLTAAHCVYGKNTHLQYWSAVLGLHAQSSMNSQEVQIRQVDRIIINKNYNRRTKEADIAMMHLQQPVNFTEWVLPVCLASEDQHFPAGRRCFIAGWGRDAEGGSLPDILQEAEVPLVDQDECQRLLPEYTFTSSMLCAGYPEGGVDSCQGDSGGPLMCLEDARWTLIGVTSFGVGCGRPERPGAYARVSAFTSWIAETRRSSFSDLD
200 µM
Medaka EP-1 serine protease domain mutant P193E (protein) VVGGVNAEKGAWPWMVSLHWRGRHGCGASLIGRDWLLTAAHCVYGKNTHLQYWSAVLGLHAQSSMNSQEVQIRQVDRIIINKNYNRRTKEADIAMMHLQQPVNFTEWVLPVCLASEDQHFPAGRRCFIAGWGRDAEGGSLPDILQEAEVPLVDQDECQRLLPEYTFTSSMLCAGYEEGGVDSCQGDSGGPLMCLEDARWTLIGVTSFGVGCGRPERPGAYARVSAFTSWIAETRRSSFSDLD
200 µM

Ask: Entry Medaka EP-1 serine protease domain mutant T105E (protein) VVGGVNAEKGAWPWMVSLHWRGRHGCGASLIGRDWLLTAAHCVYGKNTHLQYWSAVLGLHAQSSMNSQEVQIRQVDRIIINKNYNRREKEADIAMMHLQQPVNFTEWVLPVCLASEDQHFPAGRRCFIAGWGRDAEGGSLPDILQEAEVPLVDQDECQRLLPEYTFTSSMLCAGYPEGGVDSCQGDSGGPLMCLEDARWTLIGVTSFGVGCGRPERPGAYARVSAFTSWIAETRRSSFSDLD : reported Km = ?
Reply: 1300 µM

Ask: Entry Medaka EP-1 serine protease domain mutant K63R (protein) VVGGVNAEKGAWPWMVSLHWRGRHGCGASLIGRDWLLTAAHCVYGRNTHLQYWSAVLGLHAQSSMNSQEVQIRQVDRIIINKNYNRRTKEADIAMMHLQQPVNFTEWVLPVCLASEDQHFPAGRRCFIAGWGRDAEGGSLPDILQEAEVPLVDQDECQRLLPEYTFTSSMLCAGYPEGGVDSCQGDSGGPLMCLEDARWTLIGVTSFGVGCGRPERPGAYARVSAFTSWIAETRRSSFSDLD : reported Km = ?
Reply: 1200 µM

Ask: Entry Bovine EP serine protease (Novagen) (protein) IVGGSDSREGAWPWVVALYFDDQQVCGASLVSRDWLVSAAHCVYGRNMEPSKWKAVLGLHMASNLTSPQIETRLIDQIVINPHYNKRRKNNDIAMMHLEMKVNYTDYIQPICLPEENQVFPPGRICSIAGWGALIYQGSTADVLQEADVPLLSNEKCQQQMPEYNITENMVCAGYEAGGVDSCQGDSGGPLMCQENNRWLLAGVTSFGYQCALPNRPGVYARVPRFTEWIQSFLH : reported Km = ?
Reply: 500 µM
